- STUDY SYSTEM: T1, human CD98, endogenously expressed on Molt-4 human acute lymphoblastic leukemia cells (human)
- T1 chain: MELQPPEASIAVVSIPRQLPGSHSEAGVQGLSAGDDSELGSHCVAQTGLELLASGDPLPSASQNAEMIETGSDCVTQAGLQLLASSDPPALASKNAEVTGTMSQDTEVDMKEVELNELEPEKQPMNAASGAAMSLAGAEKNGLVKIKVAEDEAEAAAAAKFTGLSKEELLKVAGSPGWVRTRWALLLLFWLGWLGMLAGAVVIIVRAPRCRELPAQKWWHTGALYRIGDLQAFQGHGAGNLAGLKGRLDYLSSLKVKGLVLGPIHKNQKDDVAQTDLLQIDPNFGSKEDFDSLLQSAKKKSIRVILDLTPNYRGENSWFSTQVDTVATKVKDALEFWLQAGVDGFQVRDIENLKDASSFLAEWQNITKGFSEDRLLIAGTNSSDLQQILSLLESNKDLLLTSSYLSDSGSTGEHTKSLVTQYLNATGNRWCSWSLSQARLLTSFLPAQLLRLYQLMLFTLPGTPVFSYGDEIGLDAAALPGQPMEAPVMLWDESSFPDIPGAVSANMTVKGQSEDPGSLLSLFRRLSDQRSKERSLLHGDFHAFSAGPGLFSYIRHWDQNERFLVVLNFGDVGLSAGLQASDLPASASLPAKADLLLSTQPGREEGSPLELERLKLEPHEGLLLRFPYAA
- PROTOCOL DESCRIPTION: cell-based or functional assay
Label yes when % Cell Viability at 50 nM (Molt-4) is at or above 20%; otherwise label no.

binder="CD98 (CL-huAb102)-KZ (antibody, human IgG1, kappa, L234A L235A, V domains shown, synthon KZ on reduced cysteine (see heavy chain); Bcl-xL inhibitor synthon KZ on cysteines freed by TCEP reduction (Method A); DAR 2.8 by MS for the whole ADC) VH: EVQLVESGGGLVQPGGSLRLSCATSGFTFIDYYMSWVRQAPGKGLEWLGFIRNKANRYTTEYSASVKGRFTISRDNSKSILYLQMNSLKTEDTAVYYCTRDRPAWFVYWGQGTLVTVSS VL: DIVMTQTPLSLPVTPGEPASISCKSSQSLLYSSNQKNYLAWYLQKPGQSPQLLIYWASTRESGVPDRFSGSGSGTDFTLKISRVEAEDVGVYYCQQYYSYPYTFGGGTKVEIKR" class_assignment=yes
binder="CD98 (CL-huAb110)-SR (antibody, human IgG1, kappa, L234A L235A, V domains shown, synthon SR on reduced cysteine (see heavy chain); Bcl-xL inhibitor synthon SR on cysteines freed by TCEP reduction (Method A); DAR printed as '.0.7' by MS for the whole ADC) VH: EVQLVQSGAEVKKPGASVKVSCKASGFTFSDYTMAWVRQAPGQGLEWVATIIYDARGTYYRDAVKGRFTITRDNSTSTLYLELSSLRSEDTAVYYCARQSDDTYYYWGYFDYWGQGTMVTVSS VL: DIVMTQTPLSLPVTPGEPASINCKSSQSLLFSGNQKNYLAWYLQKPGQSPQLLIYWASTRQSGVPDRFSGSGSGTDFTLKISRVEAEDVGIYYCQQYYSSPYTFGQGTKLEIKR" class_assignment=no
binder="CD98 (CL-huAb102)-YG (antibody, human IgG1, kappa, L234A L235A, V domains shown, synthon YG on reduced cysteine (see heavy chain); Bcl-xL inhibitor synthon YG on cysteines freed by TCEP reduction (Method E); DAR 1.1 by MS for the whole ADC) VH: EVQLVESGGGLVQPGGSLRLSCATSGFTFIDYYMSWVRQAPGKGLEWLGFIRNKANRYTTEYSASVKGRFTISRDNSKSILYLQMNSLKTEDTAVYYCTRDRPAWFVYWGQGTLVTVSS VL: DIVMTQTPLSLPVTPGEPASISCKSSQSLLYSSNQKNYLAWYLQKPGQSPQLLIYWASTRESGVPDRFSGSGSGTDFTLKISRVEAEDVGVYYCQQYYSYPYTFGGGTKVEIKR" class_assignment=yes
binder="CD98 (CL-huAb104)-YG (antibody, human IgG1, kappa, L234A L235A, V domains shown, synthon YG on reduced cysteine (see heavy chain); Bcl-xL inhibitor synthon YG on cysteines freed by TCEP reduction (Method E); DAR 1.3 by MS for the whole ADC) VH: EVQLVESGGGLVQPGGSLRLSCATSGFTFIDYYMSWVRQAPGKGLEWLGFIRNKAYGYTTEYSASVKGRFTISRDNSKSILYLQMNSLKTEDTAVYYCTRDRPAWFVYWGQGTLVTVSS VL: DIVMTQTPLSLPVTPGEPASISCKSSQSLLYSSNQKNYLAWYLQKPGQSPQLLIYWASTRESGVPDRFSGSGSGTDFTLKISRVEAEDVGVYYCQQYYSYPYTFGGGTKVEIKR" class_assignment=yes
binder="CD98 (CL-huAb102)-KZ (second row with this label, r76, DAR 2.2) (antibody, human IgG1, kappa, L234A L235A, V domains shown, synthon KZ on reduced cysteine (see heavy chain); Bcl-xL inhibitor synthon KZ on cysteines freed by TCEP reduction (Method A); DAR 2.2 by MS for the whole ADC) VH: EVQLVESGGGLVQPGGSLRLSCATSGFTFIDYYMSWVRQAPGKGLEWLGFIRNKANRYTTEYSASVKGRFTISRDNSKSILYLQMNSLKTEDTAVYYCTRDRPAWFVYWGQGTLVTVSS VL: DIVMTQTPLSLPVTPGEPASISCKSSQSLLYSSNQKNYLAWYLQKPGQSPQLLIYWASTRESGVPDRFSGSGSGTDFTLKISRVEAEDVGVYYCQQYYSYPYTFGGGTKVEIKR" class_assignment=no
binder="CD98 (CL-huAb104)-SE (antibody, human IgG1, kappa, L234A L235A, V domains shown, synthon SE on reduced cysteine (see heavy chain); Bcl-xL inhibitor synthon SE on cysteines freed by TCEP reduction (Method A); DAR 2.4 by MS for the whole ADC) VH: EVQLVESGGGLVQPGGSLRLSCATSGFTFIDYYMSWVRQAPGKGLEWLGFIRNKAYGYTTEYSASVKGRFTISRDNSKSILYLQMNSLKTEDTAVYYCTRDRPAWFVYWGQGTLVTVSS VL: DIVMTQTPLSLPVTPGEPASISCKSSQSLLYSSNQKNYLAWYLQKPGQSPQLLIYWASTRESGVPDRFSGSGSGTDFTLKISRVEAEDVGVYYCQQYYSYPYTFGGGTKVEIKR" class_assignment=no
binder="CD98 (CL-huAb110)-YG (antibody, human IgG1, kappa, L234A L235A, V domains shown, synthon YG on reduced cysteine (see heavy chain); Bcl-xL inhibitor synthon YG on cysteines freed by TCEP reduction (Method E); DAR 2.8 by MS for the whole ADC) VH: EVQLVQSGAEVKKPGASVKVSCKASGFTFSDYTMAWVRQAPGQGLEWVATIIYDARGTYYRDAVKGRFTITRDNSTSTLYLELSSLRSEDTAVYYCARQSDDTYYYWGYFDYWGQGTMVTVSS VL: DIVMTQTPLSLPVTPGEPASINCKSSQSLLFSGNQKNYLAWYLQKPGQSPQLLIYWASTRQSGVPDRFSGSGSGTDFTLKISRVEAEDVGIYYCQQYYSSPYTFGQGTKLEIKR" class_assignment=no
binder="CD98 (CL-huAb102)-SR (antibody, human IgG1, kappa, L234A L235A, V domains shown, synthon SR on reduced cysteine (see heavy chain); Bcl-xL inhibitor synthon SR on cysteines freed by TCEP reduction (Method A); DAR 2.1 by MS for the whole ADC) VH: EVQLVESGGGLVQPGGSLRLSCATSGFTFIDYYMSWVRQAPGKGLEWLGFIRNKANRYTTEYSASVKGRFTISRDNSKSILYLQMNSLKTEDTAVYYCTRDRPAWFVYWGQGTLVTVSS VL: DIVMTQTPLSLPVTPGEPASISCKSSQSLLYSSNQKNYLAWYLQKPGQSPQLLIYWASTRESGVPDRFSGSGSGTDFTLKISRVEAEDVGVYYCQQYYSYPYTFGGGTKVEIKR" class_assignment=no
